experiment: qHTS to identify inhibitors of the type 1 interferon - major histocompatibility complex class I in skeletal muscle: primary screen against the NCATS LOPAC collection (AID 1347405); conditions: iHSKM muscle cells, IFN-b-induced MHC-I HiBiT luminescence, 24 h; series mostly up to 45.9 µM;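 further: human myoblasts with HiBiT tag on endogenous HLA-B stimulated by IFN-beta; lytic HiBiT luminescence reporting HLA-B protein level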
Records with an inconclusive call do not appear. The source made the active and inactive calls. The call rests on the fitted dose curve; in most records, active means well fitted inhibition curve with a large enough effect; inconclusive means small, poorly fitted or top-dose-only effect; inactive means flat fitted curve, though single readings scatter.
The reply should be one of these categories: 1 (yes) = active, 0 (no) = inactive

// return assay outcome for "Cc1nc(N=Nc2cc(S(=O)(=O)O)c3cc([N+](=O)[O-])cc(S(=O)(=O)O)c3c2)c(COP(=O)(O)O)c(C=O)c1O"
1 (yes)

Queued: CN(C)CCC(c1ccc(Br)cc1)c1ccccn1 (stereo not given)
0 (no)

Repeat with O=C1C2C=CC=CC2=NC(=S)N1CCN1CCC(=C(c2ccc(F)cc2)c2ccc(F)cc2)CC1 (stereo not given)
0 (no)

Now try CC1C(=O)N(C)C(=O)c2nc[nH]c21 (stereo not given) .
0 (no)

What do you get for CC(N)(C(=O)O)c1ccc(C(=O)O)cc1 (stereo not given) ?
0 (no)

Another compound to check: "C/C(=C\c1ccc(C(=O)O)cc1)c1ccc2c(c1)C(C)(C)CCC2(C)C"
0 (no)

Cool, now O=C(O)CCC(=O)N1CCCC1C(=O)O (stereo not given)
0 (no)
